B1: RIPK4 (parent)
chain: AAWQGHLPIVKLLAKQPGVSVNAQ

Variants of: B1
Assay: protein stability index of a GFP-peptide fusion (GPS, HEK-293T) (PSI 1-6); higher = more stable;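 note: lentivirally expressed fusions sorted by FACS into six bins by GFP to DsRed ratio, PSI derived from sequencing read proportions per bin multiplied by bin number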
Conditions: c terminus: a fixed tail appended
Please note: t applies when protein stability index is 3 or greater, and f applies otherwise.

>>> cat("G5L")
"f"
>>> cat("G5A")
"f"
>>> cat("A1H")
"f"
>>> cat("I9F")
"f"
>>> cat("A2F")
"f"
>>> cat("W3Y")
"f"
>>> cat("W3E")
"t"
>>> cat("V10M")
"f"

Exam item: Hello, I need to know if Q16I has measured protein stability index not below 3. Thanks!
Marked response: f

Exam item: Assess whether reported protein stability index for I9Q sits at 3 or higher.
Marked response: f

Exam item: Has A14D a recorded protein stability index greater than or equal to 3?
Marked response: t
